System: yeast strains expressing the human ApoE4
Experiment: Yeast ApoE4 toxicity rescue assay (OD600 growth)
Conditions: 24 h, read-out: ApoE4 Emax
The label yes is reserved for Emax strictly under 700%; no covers values equal to or above it.

Example cases with answers are listed next.
Exercise: Please determine if COc1ccc(-c2noc(N3CCC(C(=O)NCCc4ccccc4)CC3)n2)cc1OC [Compound 49] is below 700% in terms of Emax.
Solution: no

Exercise: Please determine if O=C(NCC(=O)N1CCC(c2nc(-c3ccc(F)cc3)no2)CC1)c1ccccc1 [Compound 41] is below 700% in terms of Emax.
Solution: yes

Exercise: Please determine if COc1ccc(-c2noc(C3CCN(C(=O)Cc4ccccc4)CC3)n2)cc1OC [Compound 44] is below 700% in terms of Emax.
Solution: yes

Exercise: Please determine if COc1cccc(-c2noc(C3CCN(C(=O)[C@@H]4CC(=O)N(c5ccc(C)c(C)c5)C4)CC3)n2)c1 (single isomer, unassigned) [compound 69] is below 700% in terms of Emax.
Solution: yes

Exercise: Please determine if CCOc1ccc(-c2noc(C3CCN(C(=O)CNC(=O)c4ccccc4)CC3)n2)cc1OC [Compound 155] is below 700% in terms of Emax.
Solution: no

***
Exercise: Please determine if COc1ccc(-c2nc(C3CCN(C(=O)CNC(=O)c4ccccc4)CC3)no2)cc1OC [Compound 36] is below 700% in terms of Emax.
Solution: no

Exercise: Please determine if COc1ccc(-c2noc(C3CCN(C(=O)CNC(=O)c4ccccc4Cl)CC3)n2)cc1OC [compound 25] is below 700% in terms of Emax.
Solution: no

Exercise: Please determine if COc1ccc(-c2noc(C3CCN(C(=O)CN(C)C(=O)c4ccccc4)CC3)n2)cc1OC [compound 22] is below 700% in terms of Emax.
Solution: yes

---

Biological target: Ole1 (Saccharomyces cerevisiae)
Sequence (P21147 1-510): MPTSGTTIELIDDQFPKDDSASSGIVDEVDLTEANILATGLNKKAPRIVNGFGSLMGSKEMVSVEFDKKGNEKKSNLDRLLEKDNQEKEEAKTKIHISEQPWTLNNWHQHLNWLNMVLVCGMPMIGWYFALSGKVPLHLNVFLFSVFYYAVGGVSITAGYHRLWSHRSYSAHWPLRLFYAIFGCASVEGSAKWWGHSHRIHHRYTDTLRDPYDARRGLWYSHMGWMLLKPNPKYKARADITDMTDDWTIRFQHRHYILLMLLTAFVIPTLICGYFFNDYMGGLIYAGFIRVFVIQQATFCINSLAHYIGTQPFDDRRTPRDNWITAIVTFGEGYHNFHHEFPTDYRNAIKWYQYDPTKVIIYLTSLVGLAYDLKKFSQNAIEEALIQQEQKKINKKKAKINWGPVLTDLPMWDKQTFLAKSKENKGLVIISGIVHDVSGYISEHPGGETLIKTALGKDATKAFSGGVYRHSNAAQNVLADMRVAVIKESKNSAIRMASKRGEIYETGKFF
Test: Growth inhibition of yeast strain expressing Ole1 as sole desaturase
Settings: yeast strain expressing Ole1 as sole desaturase
pIC50: −log10 of the molar value.
OBSERVABLE: pIC50

Exercise: Annotate the compound Cc1nn(C)c2cc(-c3noc(N4CCN(C(=O)c5cc(F)ccc5Cl)CC4)n3)ccc12 with its measured pIC50.
Solution: < 4.35

Exercise: Annotate the compound Cc1nn(C)c2cc(-c3noc(N4CCN(C(=O)c5cc(-c6ccccc6)no5)CC4)n3)ccc12 with its measured pIC50.
Solution: < 4.35

Exercise: Annotate the compound Cn1c(=O)n(C)c2cc(-c3noc(C4CCN(C(=O)CNC(=O)c5ccccn5)CC4)n3)ccc21 with its measured pIC50.
Solution: < 4.35

Would you kindly look at the next entry?
Exercise: Annotate the compound COc1cc(-c2noc(C3CCN(C(=O)CNC(=O)c4ccccc4)CC3)n2)ccc1OC1CC1 with its measured pIC50.
Solution: < 4.35

Measured values drawn from patent US11873298B2 for this set.
